In this section, each of the compounds is paired with its reported pIC50.
system: HepG2; experiment: Cytotoxicity against human HepG2 cells assessed as total cell protein after 48 hrs by SRB assay; type: functional, cell-based; details: HepG2, 48 h
Just so you know, pIC50 here is -log10 of the concentration in molar units; reply with that number alone.

COc1ccc(/C=C/C(=O)c2ccc(N)c(-c3ccc(F)cc3)c2)c(OC)c1 :: 5.11

q: # lookup: pIC50 of COc1ccc(OC)c(/C=C/C(=O)c2ccc(N)c(-c3ccc(F)cc3)c2)c1
a: 5.40

q: # lookup: pIC50 of O=C(/C=C/c1ccc(Br)cc1)c1cccc(-c2cccc(F)c2)c1
a: 5.00

q: # lookup: pIC50 of COc1cc(/C=C/C(=O)c2ccc(N)c(-c3ccc(F)cc3)c2)cc(OC)c1OC
a: 5.38

q: # lookup: pIC50 of COc1ccc(/C=C/C(=O)c2ccc(N)c(-c3ccc(F)cc3)c2)cc1
a: 5.43
